target: CPXV ortholog of D8 (cowpox virus); assay: lysate ELISA
Examples of binders with documented EC50 follow.
Numbers only; they are read as µg/mL.

Recorded results for 4 binders are shown here.
VACV-8 (antibody, V domains shown) VH: QVQLQQWGAGLLKPSETLSLTCAGYGGSFSGYFWSWIRQPPGKGLEWIGEINHSGSTDYNPSLKSRVTISLDTSKTQFSLKLSSVTAADTAVYYCARVMTGITNYYYYYGMDVWGQGTTVTF VL: DIQLTQSPSFLSASVGDRVTITCRASQDISSYLAWYQQKPGKAPKLLIYAASTLQSGVPSRFSGSESGTEFTLTISSLQPENFATYYCQHLNSYPRGYTFGQGTKVDIK: 0.1
MPXV-96 (antibody, V domains shown) VH: QVQLQQWGAGLLISSETLSLTCGVYGGSFSGYYWTWIRQPPGKGLEWIGEINYVGSTNYNPSLKSRVTMSVDTSKNHFSLSLSSVTAADTAVYYCARGLRGNSVCFDWGPGTLV VL: ELVMTQSPATLSVSPGERASLSCRASQSVSSNLAWYQQKPGQAPRLLIYGASTRATGLPARFSGSGSGTEFTLTISSLQSEDFAIYYCQQYNNWPRTFGQGTKVDI: 0.003
VACV-117 (antibody, V domains shown) VH: QVQLVQSGAEVKKPGASVKVSCKASGYTFTSYDINWVRQATGQGLEWLGWMNPNSGNTKSAQKVKGRVTMTRDTSISTAYMELSSLRSEDTAVYYCARTPFDDIGYYYWGQGTLVTVS VL: DIVMTQSPLSLSVTPGEPASISCRSSQSLLHSNGYNYLDWYLQKPGQSPQLLIYLGSNRASGVPDRFIGSGSGTDFTLKISIVEAEDVGVYYCMQALQTPGAFGPGTKVDIK: 0.01
MPXV-27 (antibody, V domains shown) VH: QVQLQQWGAGLLKPSETLSLTCDVYGGSFSGYYWSWIRQPPGKGLEWIGEINHSGSTTYTPSLRSRVTISVDTSKNQFSLKLSSVTAADTAVYYCARVLSGWLPFPNYYYYMDVWGKGTTVT VL: DIQMTQSPSSLPASVGDRVTITCRASQDIRNNLGWYQQKPGKAPERLIYGTSNLQSGVPSRFSGSGSGTEFTLTISSLQPEDFATYYCLQHNSYPPTFGRGTKVEIK: 0.02

# EC50 of VACV-304 (antibody, V domains shown) VH: EVQLVESGGGLVQPGGSLRLSCVVSGFTFSNYWMSWVRQAPGKGLEWVANIKQDGSKKYYVDSVTGRFTISRDNAKNSLYLQMNSLRAEDTAVYYCATLNLELAVDAISEALKWGQGTLVTVSS VL: SYELTQPPSVSVSPGQTARITCSGDALPKQFAYWYQQKPGQAPVVMIYKDSERPSGIPERFSGSSSGTTVTLTISGVQAEDEADYYCQSVDNSGTYEVFGGGTQLTVL = 0.05

# EC50 of MPXV-61 (antibody, V domains shown) V domain 1: QVQLVQSGAEVKKPGSSVKVSCKASGETFSRYAFSWVRLAPGQGLEWLGRIIPFIDIPNYAQKFQGRVTITADKSTSTAYMELSSLRSEDTAVYYCASSLPSTYYFGSGNYPWGNWLDPWGQGTLVTVSS V domain 2: QSVVTQPPSVSAAPGQNVTISCSGSSSNIGNNYVSWYHQLPGTAPKLLIYDNDKRPSGIPDRFSGSKSGTSATLGITGLQTGDEADYYCGTWDSSLSEVVFGGGTQVTVL = 0.009

# EC50 of VACV-136 (antibody, V domains shown) V domain 1: QVTLKESGPVLVNPTETLTLTCTVSGFSLSNARMRVSWIRQPPGKALEWLAHIFSNDEKSYSTSLKSRLTISKDTSKSQVVLTMTNMDPVDTASYYCARMRGEYNSYYFDSWGQGTLVTVS V domain 2: SYELTQPPSVSVSPGQTARITCSGDALPNQYAYWYQQKPGQAPVLVIYKDSERPSGIPERFSGSSSGTTVTLTISGVQAEDEADYYCQSADSSGTSVVFGGGTQVTV = 0.05

# EC50 of VACV-128 (antibody, V domains shown) VH: EVQLVQSGAEVKKPGATVKISCKVSGYTFTDYYMHWVQQAPGKGLKWMGLLDPLDGETIYSEKFQGKVTITADTSTDTAYMELSSLRSEDTAVYYCARELTGYLNYWGQGTLVTVSS VL: DIQMTQSPSSLSASVGDRVTITCRASPGICNYLAWYQHKPGKVPKLLIYAASTLQSGVPSRFTGVGSGTNFTLTINNLPPENVATYYCQKYNSAPHTFGQGTKVDIK = 0.25

src = patent US11667697
